# Emax annotations
- SYSTEM: purified human recombinant GK (Homo sapiens (Human))
- ASSAY DETAILS: Glucokinase activity assay (coupled enzymatic, G6PD/NADH absorbance at 340 nm)
- Assay type: biochemical
- MEASUREMENT CONTEXT: Emax of % change in S0.5 of glucokinase for glucose; vehicle S0.5 = 0%, 0 mM glucose = 100%; read-out: % Emax (with respect to % ΔS0.5)
// note: answer is a bare numeric in %

Below, 6 molecules whose answers are already recorded.
COc1cc(Oc2cnc(NC(=O)C(OC3CCOCC3)c3ccc(S(=O)(=O)C4CC4)cc3)s2)ccc1C(=O)O (single isomer, unassigned; (+)) [Example G9A]	92
O=C(Nc1ncc(Oc2cccc(CO)c2)s1)C(OC1CCOCC1)c1ccc(S(=O)(=O)C2CC2)cc1 (single isomer, unassigned; (+)) [Example G20A]	93
O=C(O)c1cc(Oc2cnc(NC(=O)C(OC3CCOCC3)c3ccc(S(=O)(=O)C4CC4)cc3)s2)ccn1 (stereo not shown) [Example B-49]	92
O=C(O)c1cc(Oc2cnc(NC(=O)C(OC3CCOCC3)c3ccc(S(=O)(=O)C4CC4)cc3)s2)ccc1F (single isomer, unassigned; (+)) [Example G16A]	93
Cc1cc(Oc2cnc(NC(=O)C(O[C@@H]3CCOC3)c3ccc(S(=O)(=O)C4CC4)cc3)s2)ccc1C(=O)O (single isomer, unassigned; (+)) [Example G14A]	99
O=C(Nc1ncc(-n2cccn2)s1)C(Oc1ccc(F)cc1F)c1ccc(S(=O)(=O)C2CC2)cc1 (single isomer, unassigned; (+)) [Example G4A]	91

Q. Look up Emax with purified human recombinant GK (Homo sapiens (Human)) for this molecule: O=C(Nc1ncc(C(O)CO)s1)C(Oc1ccc(F)cc1F)c1ccc(S(=O)(=O)C2CC2)cc1 (stereo not shown) [Example E3]
A. 88

====

- SYSTEM: purified human recombinant GK (Homo sapiens (Human), UniProt P35557)
- Sequence (P35557 whole entry): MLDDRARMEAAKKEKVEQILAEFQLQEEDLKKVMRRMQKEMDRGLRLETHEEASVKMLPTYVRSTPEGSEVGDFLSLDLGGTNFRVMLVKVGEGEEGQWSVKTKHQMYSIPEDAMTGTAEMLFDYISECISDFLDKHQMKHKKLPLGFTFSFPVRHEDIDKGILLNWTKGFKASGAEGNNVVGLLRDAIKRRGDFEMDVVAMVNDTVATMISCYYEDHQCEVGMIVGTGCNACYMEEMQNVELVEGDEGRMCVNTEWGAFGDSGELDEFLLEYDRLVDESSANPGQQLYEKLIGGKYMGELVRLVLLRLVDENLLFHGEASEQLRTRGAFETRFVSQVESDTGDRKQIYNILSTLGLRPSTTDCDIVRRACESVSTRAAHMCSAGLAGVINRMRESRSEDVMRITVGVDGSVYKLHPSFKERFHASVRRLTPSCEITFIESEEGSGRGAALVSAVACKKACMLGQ
- ASSAY DETAILS: Glucokinase activity assay (coupled enzymatic, G6PD/NADH absorbance at 340 nm)
- Assay type: biochemical
- MEASUREMENT CONTEXT: Emax of % change in S0.5 of glucokinase for glucose; vehicle S0.5 = 0%, 0 mM glucose = 100%; read-out: % Emax (with respect to % ΔS0.5)
# Emax annotations
// note: answer is a bare numeric in %

O=C(O)c1cccc(Oc2cnc(NC(=O)C(OC3CCOCC3)c3ccc(S(=O)(=O)C4CCCC4)cc3)s2)c1 (single isomer, unassigned; (+)) [Example G26A]	94
CCOC(=O)c1cccc(Oc2cnc(NC(=O)C(OC3CCOCC3)c3ccc(S(=O)(=O)C4CC4)cc3)s2)c1 (single isomer, unassigned; (+)) [Example G19A]	95
O=C(O)c1cc(-c2ccc(Oc3cnc(NC(=O)C(OC4CCOCC4)c4ccc(S(=O)(=O)C5CC5)cc4)s3)cc2)no1 (stereo not shown) [Example B-26]	92
Cc1ccc(Oc2cnc(NC(=O)C(OC3CCOCC3)c3ccc(S(=O)(=O)C4CC4)cc3)s2)cc1C(=O)O (single isomer, unassigned; (+)) [Example G10A]	93
COc1ccc2nc(NC(=O)C(OC3CCOCC3)c3ccc(S(=O)(=O)N4CCOCC4)cc3)sc2n1 (stereo not shown) [Example A-12]	88

Q. Field request: Emax | item: O=C(O)c1cccc(Oc2cnc(NC(=O)C(O[C@H]3CCOC3)c3ccc(S(=O)(=O)C4CC4)cc3)s2)c1 (single isomer, unassigned; (+)) [Example G25A]
A. 95

Q. Field request: Emax | item: Cc1ccc(Oc2cnc(NC(=O)C(O[C@@H]3CCOC3)c3ccc(S(=O)(=O)C4CC4)cc3)s2)cc1C(=O)O (single isomer, unassigned; (+)) [Example G11A]
A. 92

Q. Field request: Emax | item: O=C(Nc1nc2ccc(C(O)CO)nc2s1)C(OC1CCOCC1)c1ccc(S(=O)(=O)C2CC2)cc1 (stereo not shown) [Example E2]
A. 93

Q. Field request: Emax | item: O=C(O)Cc1nc(NC(=O)C(OC2CCOCC2)c2ccc(S(=O)(=O)N3CCCCC3)cc2)sc1Cl (single isomer, unassigned; (-)) [Example G3B]
A. 94

Q. Field request: Emax | item: O=C(O)c1ccc(Oc2cnc(NC(=O)C(OC3CCOCC3)c3ccc(S(=O)(=O)C4CC4)cc3)s2)cc1Cl (stereo not shown) [Example B-20]
A. 94

Q. Field request: Emax | item: Cc1cc(Oc2cnc(NC(=O)C(Oc3ccc(F)cc3F)c3ccc(S(=O)(=O)C4CC4)cc3)s2)ccc1C(=O)O (stereo not shown) [Example B-9]
A. 89

Q. Field request: Emax | item: O=C(O)C1CCc2nc(NC(=O)C(OC3CCOCC3)c3ccc(S(=O)(=O)C4CC4)cc3)sc2C1 (stereo not shown) [Example B-4]
A. 83

Q. Field request: Emax | item: O=C(O)Cc1nc(NC(=O)C(OC2CCOCC2)c2ccc(S(=O)(=O)N3CCCCC3)cc2)sc1Cl (stereo not shown) [Example B-12]
A. 90

Q. Field request: Emax | item: O=C(O)c1ccc(NC(=O)C(Oc2ccc(Cl)cc2)c2ccc(S(=O)(=O)C3CC3)cc2)nc1 (stereo not shown) [Example B-58]
A. 89

Q. Field request: Emax | item: O=C(Nc1nccs1)C(OC1CCOCC1)c1ccc(S(=O)(=O)C2CC2)cc1 (stereo not shown) [Example A-1]
A. 89

Q. Field request: Emax | item: CC(C)(C(=O)O)c1ccc(Oc2cnc(NC(=O)C(OC3CCOCC3)c3ccc(S(=O)(=O)C4CC4)cc3)s2)cc1 (single isomer, unassigned; (+)) [Example G5A]
A. 91

Q. Field request: Emax | item: O=C(Nc1ncc(Oc2cccc(CO)c2)s1)C(OC1CCOCC1)c1ccc(S(=O)(=O)C2CC2)cc1 (stereo not shown) [Example D3]
A. 92

Q. Field request: Emax | item: O=C(O)c1cc(Oc2cnc(NC(=O)C(OC3CCOCC3)c3ccc(S(=O)(=O)C4CC4)cc3)s2)ccc1Cl (stereo not shown) [Example B-23]
A. 94

Q. Field request: Emax | item: O=C(O)c1cccc(Oc2cnc(NC(=O)C(OC3CCOCC3)c3ccc(S(=O)(=O)C4CCCC4)nc3)s2)c1 (single isomer, unassigned; (+)) [Example G27A]
A. 95

Q. Field request: Emax | item: O=C(NC1CC1)c1ccc(Oc2cnc(NC(=O)C(OC3CCOCC3)c3ccc(S(=O)(=O)C4CC4)cc3)s2)cc1 (stereo not shown) [Example C3]
A. 94

Q. Field request: Emax | item: Cc1cc(Oc2cnc(NC(=O)C(OC3CCOCC3)c3ccc(S(=O)(=O)C4CC4)cc3)s2)ccc1C(=O)O (single isomer, unassigned; (+)) [Example G1A]
A. 97

Q. Field request: Emax | item: O=C(O)c1cncc(Oc2cnc(NC(=O)C(OC3CCOCC3)c3ccc(S(=O)(=O)C4CC4)cc3)s2)c1 (single isomer, unassigned; (+)) [Example G22A]
A. 95

Q. Field request: Emax | item: O=C(O)c1cnn(-c2cnc(NC(=O)C(OC3CCOCC3)c3ccc(S(=O)(=O)C4CC4)cc3)s2)c1 (single isomer, unassigned; (+)) [Example G12A]
A. 90

Q. Field request: Emax | item: O=C(Nc1ncc(F)s1)C(OC1CCOCC1)c1ccc(S(=O)(=O)N2CCOCC2)cc1 (stereo not shown) [Example A-11]
A. 85

Q. Field request: Emax | item: O=C(O)c1ccc(NC(=O)C(Oc2ccc(F)cc2F)c2ccc(S(=O)(=O)C3CC3)cc2)nc1 (single isomer, unassigned; (-)) [Example G15A]
A. 90
